# ASSAY_OVERVIEW: Clearance in mouse
# Type: ADME, organism-based
# MEASUREMENT_SETUP: in vivo
RECORDED_ENDPOINT: clearance
Please don't drop the unit; write it after the number.

Q. // Input: Cn1cc(C2(c3cc(C(=O)O)ccn3)N[C@@H](c3nc(-c4ccc(F)cc4)c[nH]3)Cc3c2[nH]c2ccccc32)cn1 (single isomer, unassigned; 3A) . Output its clearance only.
A. 15.6 mL/min/kg

* * *

# TESTED_ON: Somatostatin receptor type 3 (Mus musculus)
# Sequence (P30935 whole entry): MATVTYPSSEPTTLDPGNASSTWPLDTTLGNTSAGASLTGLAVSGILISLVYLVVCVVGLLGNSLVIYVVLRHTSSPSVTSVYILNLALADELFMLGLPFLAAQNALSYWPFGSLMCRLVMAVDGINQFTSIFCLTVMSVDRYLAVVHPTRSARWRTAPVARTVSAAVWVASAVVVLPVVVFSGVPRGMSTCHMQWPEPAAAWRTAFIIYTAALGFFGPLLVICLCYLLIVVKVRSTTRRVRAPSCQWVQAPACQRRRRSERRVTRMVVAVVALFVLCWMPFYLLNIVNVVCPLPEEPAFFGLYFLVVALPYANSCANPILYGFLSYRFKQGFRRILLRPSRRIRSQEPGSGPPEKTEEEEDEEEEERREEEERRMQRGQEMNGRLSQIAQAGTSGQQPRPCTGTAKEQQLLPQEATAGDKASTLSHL
# ASSAY_OVERVIEW: Antagonist activity at mouse SSTR3 expressed in CHO cells assessed as cAMP level by fluorescence analysis
# Type: functional, cell-based
RECORDED_ENDPOINT: pIC50
FYI, pIC50 means -log10 of a concentration in mol per litre.

Look over these answered cases.
[
  {
    "COMPOUND": "Cn1cc(C2(c3ccc(C(=O)O)cn3)N[C@@H](c3nc(-c4ccc(F)cc4)c[nH]3)Cc3c2[nH]c2ccccc32)cn1 (single isomer, unassigned; 5A)",
    "TESTED_ON": "Somatostatin receptor type 3 (Mus musculus)",
    "pIC50": 7.24
  },
  {
    "COMPOUND": "CCOC(=O)c1cccc(C2(c3cnn(C)c3)N[C@@H](c3nc(-c4ccc(F)cc4)c[nH]3)Cc3c2[nH]c2ccccc32)n1 (single isomer, unassigned; 6B)",
    "TESTED_ON": "Somatostatin receptor type 3 (Mus musculus)",
    "pIC50": 8.46
  },
  {
    "COMPOUND": "CCOC(=O)c1ccnc([C@@]2(c3cnn(C)c3)N[C@@H](c3nc(-c4ccc(F)cc4)c[nH]3)Cc3c2[nH]c2ccccc32)c1",
    "TESTED_ON": "Somatostatin receptor type 3 (Mus musculus)",
    "pIC50": 7.83
  },
  {
    "COMPOUND": "Cn1cc(C2(c3cccc(C(=O)O)n3)N[C@@H](c3nc(-c4ccc(F)cc4)c[nH]3)Cc3c2[nH]c2ccccc32)cn1 (single isomer, unassigned; 2A)",
    "TESTED_ON": "Somatostatin receptor type 3 (Mus musculus)",
    "pIC50": 7.47
  },
  {
    "COMPOUND": "Cn1cc([C@@]2(c3cncc(C(=O)O)c3)N[C@@H](c3nc(-c4ccc(F)cc4)c[nH]3)Cc3c2[nH]c2ccccc32)cn1",
    "TESTED_ON": "Somatostatin receptor type 3 (Mus musculus)",
    "pIC50": 9.80
  },
  {
    "COMPOUND": "CCOC(=O)c1cccc(C2(c3cnn(C)c3)N[C@@H](c3nc(-c4ccc(F)cc4)c[nH]3)Cc3c2[nH]c2ccccc32)n1 (single isomer, unassigned; 6A)",
    "TESTED_ON": "Somatostatin receptor type 3 (Mus musculus)",
    "pIC50": 9.24
  },
  {
    "COMPOUND": "Cn1cc([C@]2(c3cncc(C(=O)O)c3)N[C@@H](c3nc(-c4ccc(F)cc4)c[nH]3)Cc3c2[nH]c2ccccc32)cn1",
    "TESTED_ON": "Somatostatin receptor type 3 (Mus musculus)",
    "pIC50": 8.54
  },
  {
    "COMPOUND": "CCOC(=O)c1cncc([C@]2(c3cnn(C)c3)N[C@@H](c3nc(-c4ccc(F)cc4)c[nH]3)Cc3c2[nH]c2ccccc32)c1",
    "TESTED_ON": "Somatostatin receptor type 3 (Mus musculus)",
    "pIC50": 9.46
  }
]

Q. Supply reported pIC50 belonging to this compound: Cn1cc(C2(c3cccc(C(=O)O)n3)N[C@@H](c3nc(-c4ccc(F)cc4)c[nH]3)Cc3c2[nH]c2ccccc32)cn1 (single isomer, unassigned; 2B)
A. 6.95

Q. Consider the compound Cn1cc(C2(c3cc(C(=O)O)ccn3)N[C@@H](c3nc(-c4ccc(F)cc4)c[nH]3)Cc3c2[nH]c2ccccc32)cn1 (single isomer, unassigned; 3A) . State its measured pIC50.
A. 9.14
